Just for reference, PubChem BioAssay AID248 is where these values come from.

Tested on: L1210 leukemia ip in BDF1 mice, survival T/C
Assay: NCI In Vivo Anticancer Drug Screen. Data for tumor model L1210 Leukemia (intraperitoneal) in B6D2F1 (BDF1) mice
Details: endpoint: mean survival time; dose: 100.0 mg/kg/injection; schedule: Q04DX003 (ip); vehicle: saline with Tween-80; higher = longer survival
Toxic doses and inconclusive results are not listed.
T/C by entry:

Use these answered entries as a reference point.
FC(F)C(F)(F)C(F)(F)C(F)(F)C(F)(F)C(F)(F)COc1nc(OCC(F)(F)C(F)(F)C(F)(F)C(F)(F)C(F)(F)C(F)F)nc(OCC(F)(F)C(F)(F)C(F)(F)C(F)(F)C(F)(F)C(F)F)n1 | 91 % of control
O=C(CCCCCCCCC(=O)N/N=C/c1ccccc1)N/N=C/c1ccccc1 | 97 % of control
S=P1(c2ccccc2)Nc2cc3ccccc3cc2N1 | 97 % of control
CC(C)OC(=S)SCC(=O)O | 97 % of control

Switching to the query record.
Task item: # get_value(readout= T/C, system= L1210 leukemia ip in BDF1 mice, survival T/C) for "O=c1[nH]c(=O)n(Cc2ccccc2)cc1Cc1cccc(OCc2ccccc2)c1"
Reply: 97 % of control

---

T/C by entry:
Test system: L1210 leukemia ip in BDF1 mice, survival T/C
Test: NCI In Vivo Anticancer Drug Screen. Data for tumor model L1210 Leukemia (intraperitoneal) in B6D2F1 (BDF1) mice
Conditions: endpoint: mean survival time; dose: 200.0 mg/kg/injection; schedule: Q04DX003 (ip); vehicle: gum acacia; higher = longer survival
Toxic doses and inconclusive results are not listed.

O=C(O)CCCCCNC(=O)OCc1ccccc1 | 93 % of control
O=C(O)CCCOc1cc(Cl)c(Cl)cc1Cl | 104 % of control
CCCCNc1ccc(C(=O)O)cc1 | 91 % of control
Oc1cccc(C2=NNC(c3cccc(O)c3)=NN2)c1 | 89 % of control

Switching to the query record.
Task item: Could you share which T/C value was measured for "CCCCNC(=O)Nc1c(C)cccc1C" ?
Reply: 91 % of control

---

Test system: L1210 leukemia ip in BDF1 mice, survival T/C
Assay: NCI In Vivo Anticancer Drug Screen. Data for tumor model L1210 Leukemia (intraperitoneal) in B6D2F1 (BDF1) mice
Conditions: endpoint: mean survival time; dose: 150.0 mg/kg/injection; schedule: Q01DX001 (ip); vehicle: carboxymethylcellulose (CMC); higher = longer survival
Toxic doses and inconclusive results are not listed.
T/C by entry:

O=C1c2ccccc2C2(c3ccccc31)C(C(=O)c1ccccc1)C2C(=O)c1ccccc1 (centres undefined) | 96 % of control
CNCCc1cc2c(c(OC)c1/C=C/C(=O)/C=C/c1c(CCNC)cc3c(c1OC)OCO3)OCO2 | 100 % of control
ClCCNCc1cccc(Nc2ccnc3cc(Cl)ccc23)c1 | 95 % of control

Task item: Could you share which T/C value was measured for "O=[N+]([O-])Nc1cc(Cl)nc(Cl)c1" ?
Reply: 97 % of control

---

System: L1210 leukemia ip in BDF1 mice, survival T/C
Assay: NCI In Vivo Anticancer Drug Screen. Data for tumor model L1210 Leukemia (intraperitoneal) in B6D2F1 (BDF1) mice
Conditions: endpoint: mean survival time; dose: 50.0 mg/kg/injection; schedule: Q01DX009 (ip); vehicle: Klucel (hydroxypropylcellulose) (HPC); higher = longer survival
Toxic doses and inconclusive results are not listed.
T/C by entry:

CCOC(=O)c1nnc(-c2ccccc2)[nH]c1=O | 92 % of control
Cc1ccc(-c2cc3ccccc3[nH]2)cc1 | 94 % of control
CC(=O)OCCOc1ccc(C(C)(C)C)cc1 | 100 % of control

Switching to the query record.
Task item: Could you share which T/C value was measured for "NC(=O)C1(N2CCCC2)CCN(Cc2ccccc2)CC1" ?
Reply: 94 % of control

---

Test system: L1210 leukemia ip in BDF1 mice, survival T/C
Test: NCI In Vivo Anticancer Drug Screen. Data for tumor model L1210 Leukemia (intraperitoneal) in B6D2F1 (BDF1) mice
Settings: endpoint: mean survival time; dose: 200.0 mg/kg/injection; schedule: Q04DX003 (ip); vehicle: other; higher = longer survival
Toxic doses and inconclusive results are not listed. Square brackets hold non-standard residues; d marks the D form. Peptide text beside a SMILES is read from it. * marks the point of attachment. ξ: configuration not given here. ξF = NC(Cc1ccccc1)C(=O)O; Cbz = O=C(OCc1ccccc1)*
reportedProperty: T/C

COC(=O)C(Cc1ccccc1)NC(=O)CNC(=O)OCc1ccccc1 (stereo not drawn) (Cbz-Gly-[ξF]-OMe) | 101 % of control

Task item: Could you share which T/C value was measured for "CCCC(=O)CC(=O)C(F)(F)F.CCCC(=O)CC(=O)C(F)(F)F.CCCC(=O)CC(=O)C(F)(F)F.[Er]" ?
Reply: 107 % of control

Task item: Could you share which T/C value was measured for "O=C1CCCN(c2ccccc2)c2ccccc21" ?
Reply: 109 % of control

Task item: Could you share which T/C value was measured for "Clc1ncc(Br)c(Cl)n1" ?
Reply: 90 % of control

Task item: Could you share which T/C value was measured for "Cc1cc(C(=O)C=[N+]=[N-])c(CN2C(=O)c3ccccc3C2=O)c(=O)n1C" ?
Reply: 93 % of control

---

T/C by entry:
System: L1210 leukemia ip in BDF1 mice, survival T/C
Assay: NCI In Vivo Anticancer Drug Screen. Data for tumor model L1210 Leukemia (intraperitoneal) in B6D2F1 (BDF1) mice
Conditions: endpoint: mean survival time; dose: 400.0 mg/kg/injection; schedule: Q04DX003 (ip); vehicle: saline; higher = longer survival
Toxic doses and inconclusive results are not listed.

Task item: Could you share which T/C value was measured for COC(=O)CC(O)C(=O)OC (stereo not given) ?
Reply: 110 % of control

Task item: Could you share which T/C value was measured for O=C(NC(C(O)CO)C(O)C(O)CO)c1ccccc1 (stereo not given) ?
Reply: 102 % of control

Task item: Could you share which T/C value was measured for "COC(=O)/C(=C\c1cccnc1)NC(=O)c1ccccc1" ?
Reply: 97 % of control

Task item: Could you share which T/C value was measured for O=c1[nH]c(=O)n(C2CC=CO2)cc1F (stereo not given) ?
Reply: 117 % of control

Task item: Could you share which T/C value was measured for CCC(NC(C)=O)C(=O)O (stereo not given) ?
Reply: 95 % of control

Task item: Could you share which T/C value was measured for "CC(C)(CCC(C)(C)NCCC#N)NCCC#N" ?
Reply: 95 % of control

Task item: Could you share which T/C value was measured for "CC(C)NNC(=O)c1ccc(N)cc1" ?
Reply: 108 % of control

Task item: Could you share which T/C value was measured for "CC(=O)c1ccc2ccc3ccccc3c2c1" ?
Reply: 101 % of control

Task item: Could you share which T/C value was measured for "Cc1cc(=O)n(-c2ccccc2)n1C" ?
Reply: 106 % of control

Task item: Could you share which T/C value was measured for CCC(C)C(C)(CO)CO (stereo not given) ?
Reply: 97 % of control

Task item: Could you share which T/C value was measured for "O=c1cc(CSCCO)[nH]c(=O)[nH]1" ?
Reply: 104 % of control

Task item: Could you share which T/C value was measured for "CC(=O)OS(=O)(=O)c1ccc(C)cc1" ?
Reply: 89 % of control

Task item: Could you share which T/C value was measured for "O=P(CCCl)(CCCl)CCCl" ?
Reply: 101 % of control

Task item: Could you share which T/C value was measured for "O=C1CCC(=O)C12CCNCC2" ?
Reply: 107 % of control

Task item: Could you share which T/C value was measured for CC1(C)c2ccccc2C(=O)C1Cc1ccccc1 (stereo not given) ?
Reply: 96 % of control

---

System: L1210 leukemia ip in BDF1 mice, survival T/C
Experiment: NCI In Vivo Anticancer Drug Screen. Data for tumor model L1210 Leukemia (intraperitoneal) in B6D2F1 (BDF1) mice
Conditions: endpoint: mean survival time; dose: 200.0 mg/kg/injection; schedule: Q04DX003 (ip); vehicle: acetone; higher = longer survival
Toxic doses and inconclusive results are not listed.
reportedProperty: T/C

O=C1/C(=C/c2cccc([N+](=O)[O-])c2)CCc2ccccc21 | 101 % of control
[N-]=[N+]=Nc1ccc(-c2nc(N)nc(N)n2)cc1 | 97 % of control
CCCCCCC(=O)/C=C/c1ccc(Cl)c(Cl)c1 | 93 % of control

Task item: Could you share which T/C value was measured for "N#C/C(=C1C=C(Br)/C(=N\O)C=C\1Cl)c1ccc(Cl)cc1" ?
Reply: 100 % of control

---

Tested on: L1210 leukemia ip in BDF1 mice, survival T/C
Assay: NCI In Vivo Anticancer Drug Screen. Data for tumor model L1210 Leukemia (intraperitoneal) in B6D2F1 (BDF1) mice
Settings: endpoint: mean survival time; dose: 400.0 mg/kg/injection; schedule: Q04DX003 (ip); vehicle: saline sonified; higher = longer survival
Inconclusive results and toxic doses are left out.
reportedProperty: T/C

Use these answered entries as a reference point.
COc1cc(C=Nc2ccc3c(c2)Cc2ccccc2-3)ccc1O | 95 % of control
CCCCNC(C)(C)C(SSSC(c1cccs1)C(C)(C)NCCCC)c1cccs1 (centres undefined) | 100 % of control
CC(=O)OCc1ccc(Cl)c(Cl)c1 | 106 % of control

Task item: # get_value(readout= T/C, system= L1210 leukemia ip in BDF1 mice, survival T/C) for "O=C(Nc1ccc([N+](=O)[O-])cc1)Nc1ccc([N+](=O)[O-])cc1"
Reply: 93 % of control
